Each record here notes measured growth.
System: NCI-H460 lung
experimentDescription: NCI-60 one-dose screen, 48 h (100 = growth as untreated, 0 = no growth, -100 = all killed)
conditionInfo: 10 µM
Compounds without any hit were thinned out: in the full panel of roughly 83,000, 20% have a hit. The source made the active and inactive calls. The calls were made as follows: active = growth percent below 10; inactive = the rest.
endpointName: growth

compound=COc1cc2c(cc1NC(=O)C(F)(F)F)-c1ccc(NC(=O)C(F)(F)F)cc1C2 result="97.8% (inactive)"
compound=O=c1cn[nH]c2ccc(Br)cc12 result="108% (inactive)"
compound=Cn1c2ccccc2c2c3[nH][nH]c(=O)c3c3c4ccccc4[nH]c3c21 result="-28.2% (active)"
compound=COc1cc(-c2csc(NC(=O)Nc3cc(C(F)(F)F)cc(C(F)(F)F)c3)n2)cc(OC)c1OC result="10.9% (inactive)"
compound="C#CC(C)(O)[C@@H]1C[C@H](CC(=O)O)C1(C)C (stereo partly drawn)" result="116% (inactive)"
compound="C=CCN(CC=C)C(=O)[C@H](CC)[C@@H]1CC[C@@H](C)[C@@H]([C@H](C)[C@@H](O)[C@@H](C)C(=O)[C@H](CC)C2O[C@]3(C=CC(=O)[C@]4(CC[C@@](C)([C@H]5CC[C@](O)(CC)[C@H](C)O5)O4)O3)[C@H](C)C[C@@H]2C)O1 (stereo partly drawn)" result="15.2% (inactive)"
compound=O=C(CCCCNC(=O)c1nc(-c2ccccc2)n(-c2ccccc2)n1)NO result="78.1% (inactive)"
compound="CC[C@@H](C(=O)[C@@H](C)[C@@H](O)[C@H](C)[C@@H]1O[C@@H]([C@@H](CC)C(=O)O)CC[C@@H]1C)C1O[C@]2(C=CC(=O)[C@]3(CC[C@@](C)([C@H]4CC[C@](O)(CC)[C@H](C)O4)O3)O2)[C@H](C)C[C@@H]1C (stereo partly drawn)" result="23.8% (inactive)"

* * *

Tested on: LOX IMVI melanoma
experimentDescription: NCI-60 one-dose screen, 48 h (100 = growth as untreated, 0 = no growth, -100 = all killed)
conditionInfo: 10 µM
This is part of a sample that, as a whole, favours compounds with a hit. Of some 83,000 tested, about 20% had one in any assay.
endpointName: growth (%)

compound=CN(C)CCCOc1cccc(NC2=C(Cl)C(=O)C(Nc3cccc(OCCCN(C)C)c3)=C(Cl)C2=O)c1 endpointname=growth quantitativereadout=-82.6
compound=CCC(CC)n1c(C)cc(=O)n1C(CC)CC endpointname=growth quantitativereadout=102
compound=COc1cc(NC(=O)Nc2cnc(Nc3ccc(N4CCOCC4)cc3)nc2Oc2cccc(OC)c2)cc(OC)c1 endpointname=growth quantitativereadout=33.3
compound=O=C(N/N=C/c1ccc([N+](=O)[O-])cc1)c1ccccc1Nc1cccc(C(F)(F)F)c1 endpointname=growth quantitativereadout=98.1
compound=CCOc1ccccc1/C=N\N=C(\N)N/N=C/c1ccccc1OCC endpointname=growth quantitativereadout=30.9
compound=O=C(Nc1nc(-c2ccccc2)nc2c1sc(=S)n2-c1ccccc1)C(F)(F)F endpointname=growth quantitativereadout=84.4
compound=CC(=O)[C@H]1CC[C@]2(C)[C@@H]1CC[C@@H]1[C@@]3(C)CC(CCC#N)(CCC#N)C(=O)C(C)(C)[C@@H]3CC[C@]12C endpointname=growth quantitativereadout=94.1
compound="OC(CNc1ccnc2cc(Cl)ccc12)CNC1CCCCC1 (stereo not given)" endpointname=growth quantitativereadout=73
compound=CCOC(=O)CC(S(=O)(=O)c1ccccc1)S(=O)(=O)c1ccccc1 endpointname=growth quantitativereadout=98.6
compound="COC1=CC(=O)OC(c2ccc(OC)cc2)C1 (stereo not given)" endpointname=growth quantitativereadout=94.9

* * *

Tested on: NCI-H23 lung
experimentDescription: NCI-60 one-dose screen, 48 h (100 = growth as untreated, 0 = no growth, -100 = all killed)
conditionInfo: 10 µM
Procedure: Growth inhibition of the NCI-H23 human Non-Small Cell Lung tumor cell line is measured as a screen for anti-cancer activity. Cells are grown in 96 well plates and exposed to the test compound for 48 hours. Compounds are tested at a single concentration, which is 10^-5 M for most compounds. The reported endpoint is percent growth (GI% or GIPRCNT), where numbers from 0 - 100% represent growth inhibition, and numbers from -100% - 0 represent cell death. […]
About 83,000 compounds went through this panel and 20% of them were active in at least one assay; those are over-represented in the sample as a whole. Active and inactive are the calls of the source. The calls were made as follows: active = growth percent below 10; inactive = the rest.
endpointName: growth

compound=CSc1ccc(-c2cc(-c3ccc(NC(=O)CCCN4CCCC4)cc3)nc(-c3ccc(NC(=O)CCCN4CCCC4)cc3)c2)cc1 targetorsystem="NCI-H23 lung" result="92.8% (inactive)"
compound=CCOC(=O)c1cc(C(=O)c2ccc(OC)c(OC)c2)n2ccncc12 targetorsystem="NCI-H23 lung" result="97.4% (inactive)"
compound=COc1cc2c3c(n([C@H]4CCOC4)c(=O)c2cc1OC)-c1cc2c(cc1C3=O)OCO2 targetorsystem="NCI-H23 lung" result="17.4% (inactive)"
compound=CN(C)CCCSc1ccccc1NC1=C(Cl)C(=O)C(Nc2ccccc2SCCCN(C)C)=C(Cl)C1=O targetorsystem="NCI-H23 lung" result="-43.4% (active)"
compound=O=C(COc1cccc(/C=C2\CSc3ccc(Cl)cc3C2=O)c1)c1ccc(Cl)cc1 targetorsystem="NCI-H23 lung" result="75.1% (inactive)"
compound="C=C1CCC2(C#N)[C@H]3[C@H](CC[C@@H]2C)[C@@H](C)C[C@@H](CC(C)(C)NC(=O)CN2CCC2=O)[C@H]13 (some centres undefined)" targetorsystem="NCI-H23 lung" result="60.3% (inactive)"
compound=CCOC(=O)c1cc(C(=O)c2cc(OC)c(OC)c(OC)c2)n2nc(C)ccc12 targetorsystem="NCI-H23 lung" result="39.2% (inactive)"
compound=CN1CCN(CC(=O)Nc2cccc(-n3cc(-c4ccncc4)c(-c4ccc(Cl)c(O)c4)n3)c2)CC1 targetorsystem="NCI-H23 lung" result="50.4% (inactive)"
compound=N#Cc1c(-c2ccc(Cl)cc2)n(O)c2ccccc12 targetorsystem="NCI-H23 lung" result="-13.5% (active)"

* * *

growth overview
System: MDA-MB-435 melanoma
experimentDescription: NCI-60 one-dose screen, 48 h (100 = growth as untreated, 0 = no growth, -100 = all killed)
conditionInfo: 10 µM
The panel holds about 83,000 compounds, 20% with a hit somewhere; the sample as a whole holds those more often.
endpointName: growth (%)

molecule=CC[C@H]1OC(=O)[C@H](C)[C@@H](O[C@H]2C[C@@](C)(OC)[C@@H](O)[C@H](C)O2)[C@H](C)[C@@H](O[C@@H]2O[C@H](C)C[C@H](N(C)C)[C@H]2O)[C@](C)(OC)C/C(C)=C2/O[C@@]1(C)C=C2C quantitativereadout=-83.4
molecule=Clc1nc2ccc(Br)cc2cc1-c1nc2ccccc2[nH]1 quantitativereadout=102
molecule="CCC(C)[C@H](NC(C)=O)C(=O)N[C@@H](CCCNC(=N)N)C(=O)N[C@@H](CCCCN)C(=O)N[C@@H](CC1CCC(O)CC1)C(=O)NC(C(=O)N[C@@H](CCSC)C(=O)N[C@@H](CCCNC(=N)N)C(=O)N[C@@]1(C)CCC/C=C\\CCC[C@@](C)(C(=O)NC(C(=O)N[C@@H](CCC(=O)O)C(=O)N[C@@H](CC(C)C)C(=O)N[C@H](C(=O)N[C@@H](CCC(=O)O)C(N)=O)C(C)C)[C@@H](C)O)NC(=O)[C@H](CCC(N)=O)NC(=O)[C@H](CC(C)C)NC(=O)[C@H](CC(C)C)NC1=O)[C@@H](C)O (some centres not stated)" quantitativereadout=105
molecule=O=C(Nc1ccc2c(O)cc(S(=O)(=O)O)cc2c1)c1ccc([N+](=O)[O-])cc1 quantitativereadout=106
molecule=Cc1cc(SC#N)cc(C(C)(C)C)c1O quantitativereadout=107
molecule="CCCCCOC(=O)Nc1nc(=O)n(C2O[C@H](C)[C@@H](O)[C@H]2O)cc1F (some centres not stated)" quantitativereadout=98.4
molecule="O=C1OC(C(Cl)(Cl)Cl)OC1C(Cl)(Cl)Cl (configuration not stated)" quantitativereadout=94.7

* * *

Test system: SK-OV-3 ovarian
experimentDescription: NCI-60 one-dose screen, 48 h (100 = growth as untreated, 0 = no growth, -100 = all killed)
conditionInfo: 10 µM
This is part of a sample that, as a whole, favours compounds with a hit. Of some 83,000 tested, about 20% had one in any assay.
Checkbox rule: growth lower than 80% = 1; growth not lower than 80% = -1.

molecule=Cc1c2cnccc2c(C)c2c1oc1ccccc12 assignedlabel=1
molecule=COc1ccc(-c2cc(-c3ccc(OC)c(OC)c3)nc(SCCCC(=O)NO)n2)cc1 assignedlabel=1
molecule=CN(C)CCOc1ccc(-c2nc3sccn3c2-c2ccnc(S(C)(=O)=O)n2)cc1 assignedlabel=-1
molecule=Cc1ccc(NC(=O)N2CCCCC2)cc1[N+](=O)[O-] assignedlabel=-1
molecule=COc1cc2c3c(n(C4CCNCC4)c(=O)c2cc1OC)-c1cc2c(cc1C3=O)OCO2 assignedlabel=1
molecule=CCOC(=O)CSc1nc(-c2cc(OC)ccc2OC)cc(-c2ccc(OC)cc2)c1C#N assignedlabel=-1
molecule="COc1ccc(C(c2ccc(OCCN(C)C)cc2)c2cc3ccccc3c3ccccc23)cc1 (stereo not given)" assignedlabel=-1
molecule=O=C(Nc1ccccc1)Nc1ncnc2c1ncn2-c1ccccc1 assignedlabel=1
molecule="COc1ccc(/C=C2\\CCCC3C2=Nc2ccccc2NC3c2ccc(OC)cc2)cc1 (stereo not given)" assignedlabel=-1
